Where these numbers come from: the supplement of paper PMC11208160

- method-notes: recombinant UMI read abundance after kanamycin selection (control-corrected) (log10(CPM+1)); higher = more efficient recombination; extreme values may be limits of the assay; sequences stand for … in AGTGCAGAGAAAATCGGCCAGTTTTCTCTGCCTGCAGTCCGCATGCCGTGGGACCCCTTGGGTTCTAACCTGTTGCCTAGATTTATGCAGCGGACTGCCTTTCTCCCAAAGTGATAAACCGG…AGGTTGGTTTCACT; site = the 11-nt donor;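 also: IS621 bridge recombinase in Escherichia coli cells against a fixed T5 target plasmid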
Hi, to clarify the labels: 1 covers recombinant UMI read abundance (log10) from 0.3 upward, -1 covers anything below 0.3.

construct-sequence	label
CTCATATCATGGACCGGTTTTCCCGGTAATCCGTATTTGAC (site CTCATATCTGT)	1
CGTGGAGCATGGACCGGTTTTCCCGGTAATCCGTATTTGTT (site CGTGGAGCTAA)	1
CCCCACACATGGACCGGTTTTCCCGGTAATCCGTATTTGGA (site CCCCACACTTC)	-1
CCTAACGCATGGACCGGTTTTCCCGGTAATCCGTATTTGCT (site CCTAACGCTAG)	-1
CCGTCATCATGGACCGGTTTTCCCGGTAATCCGTATTTGCT (site CGATCATCTAG)	-1
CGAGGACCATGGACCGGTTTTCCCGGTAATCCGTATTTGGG (site CGAGGACCTCC)	-1
CGAGGACCATGGACCGGTTTTCCCGGTAATCCGTATTTGGT (site CGAGGACCTCC)	-1
CGATCATCATGGACCGGTTTTCCCGGTAATCCGTATTTGAC (site CGATCATCTGT)	1
TCCAATTCATGGACCGGTTTTCCCGGTAATCCGTATTTGGC (site TCCAATTCTGA)	-1
ACTGAGACATGGACCGGTTTTCCCGGTAATCCGTATTTGGT (site ACTGAGACTAC)	1
ACGAGAACATGGACCGGTTTTCCCGGTAATCCGTATTTGAG (site ACGAGAACTCT)	1
ATGTAGGCATGGACCGGTTTTCCCGGTAATCCGTATTTGAC (site ATGTAGGCTGA)	1
CACGCCCCATGGACCGGTTTTCCCGGTAATCCGTATTTGTT (site CACGGCCCTAA)	-1
ACATCTACATGGACCGGTTTTCCCGGTAATCCGTATTTGAG (site ACATCTACTCT)	1
AACGCTGCATGGACCGGTTTTCCCGGTAATCCGTATTTGAA (site AACGCTGCTTT)	1
GTAGGTACATGGACCGGTTTTCCCGGTAATCCGTATTTGAC (site GTAGCTACTGT)	1
ATAAGACCATGGACCGGTTTTCCCGGTAATCCGTATTTGAC (site ATAAGACCTGT)	-1
CAAGAATCATGGACCGGTTTTCCCGGTAATCCGTATTTGAC (site CAAGAATCTGT)	1
